Reported melting point values for a set of compounds

{"Compound": "COc1ccc(CN2C(=O)[C@@H](NC(=O)Cc3ccccc3)[C@H]2CO)c(OC)c1 (relative stereo)", "melting point": "152 to 154 °C"}
{"Compound": "O=C(O)C1=Cc2cc(Cl)cc(C=NO)c2OC1C(F)(F)F (centres undefined)", "melting point": "247 to 248 °C"}
{"Compound": "CCCNC(=S)NS(=O)(=O)N1CCC(CCNC(=O)c2cc(Cl)ccc2OC)CC1", "melting point": "119 to 121 °C"}
{"Compound": "CC(C)(C#N)c1cc(Cn2cncn2)cc(-c2ccc(OS(N)(=O)=O)c(Cl)c2)c1", "melting point": "71 to 74 °C"}

====

Here, each record is paired with measured melting point data.

{"Mol": "COC(=O)C[C@@H](CC(=O)C=Cc1c(-c2ccc(F)cc2)c(-c2ccccc2)c(C(=O)NCc2ccc(F)cc2)n1C(C)C)O[Si](C)(C)C(C)(C)C", "melting point": "62 to 63 °C"}
{"Mol": "Cc1ccc(OCCCCCCCCCCC(Cl)(Cl)C(=O)O)cc1", "melting point": "67 to 68 °C"}
{"Mol": "Cc1cc(C)c(Nc2nc(C)ccc2S(=O)(=O)c2ccc(OCc3ccccc3[N+](=O)[O-])cc2)c(C)c1", "melting point": "153 to 155 °C"}
{"Mol": "CCNC(=O)c1cc(Cl)ccc1Br", "melting point": "98 to 99 °C"}

====

Below, each of the compounds is paired with its reported melting point value.
Measured Quantity: melting point

{"Compound": "CCOC(=O)C1=C(N)N=C(OCC)C(C(=O)OCC)C1c1cccc(C(=O)OCC)c1 (stereo not drawn)", "Measured": "87 °C"}
{"Compound": "CCOC(=O)CCCNC(=O)Cn1c(-c2cccc(Cl)c2)nc2cccnc21", "Measured": "127 to 129 °C"}
{"Compound": "COC(=O)N1CCC(C(C(N)=O)(c2ccc(F)cc2)c2ccc(F)cc2)CC1", "Measured": "126 to 129 °C"}

====

melting point listing for selected molecules.

{"Molecule": "O=C(O)[C@@H]1Cc2ncn(Cc3ccccc3)c2CN1C(=O)c1ccccc1", "melting point": "233 to 235 °C"}
{"Molecule": "O=C(O)CCc1oc(SCc2cccnc2)nc1-c1ccc(Cl)cc1", "melting point": "129 to 130 °C"}
{"Molecule": "COC(=O)c1[nH]c(Br)c(Br)c1OC(C)C", "melting point": "124 to 125 °C"}
{"Molecule": "CCOC(=O)C1Cc2cc(-c3noc4ccccc34)c(Cl)c(Cl)c2O1 (stereo unspecified)", "melting point": "114 to 116 °C"}
{"Molecule": "CC(C)CCCC(C)NC1=NS(=O)(=O)c2sc(Cl)cc2N1 (stereo unspecified)", "melting point": "197 to 199 °C"}
{"Molecule": "Cc1cccc(C(=O)Nc2c[nH]nc2C(=O)NCCF)n1", "melting point": "220 to 221 °C"}

====

Reported melting point values are given for each entry in this list.
Measured Quantity: melting point

{"Compound": "CCNC(=O)n1ncc2ccc(OC(C)=O)c(CC3CO3)c21 (centres undefined)", "Measured": "110 to 111 °C"}
{"Compound": "O=C(NCCCCCn1cncn1)c1ccc(Cl)s1", "Measured": "79 to 81 °C"}
{"Compound": "COc1cc(OC(=O)c2cc(O)c(O)c(O)c2)ccc1OC(=O)c1cc(O)c(O)c(O)c1", "Measured": "214 to 216 °C"}
{"Compound": "COc1ccc(F)cc1C(C)(C)CC(O)(Cn1ncc(=O)c2ccccc21)C(F)(F)F (centres undefined)", "Measured": "122 to 123 °C"}
